Assay Comment: Pharmacokinetics after oral administration of tofacitinib to rats
Type: in vivo, Sprague-Dawley rats
Applied Conditions: male, Sprague-Dawley, rat, plasma; oral 50 mg/kg
Metric: Tmax (min)
Give just the numeric value; min need not be written.

Recorded Tmax (molecule `C[C@@H]1CCN(C(=O)CC#N)C[C@@H]1N(C)c1ncnc2[nH]ccc12` ): 34.4

----------
Assay Comment: Pharmacokinetics after oral administration of tofacitinib to rats
Type: in vivo, Sprague-Dawley rats
Applied Conditions: male, Sprague-Dawley, rat, plasma; oral 50 mg/kg
Metric: Cmax

Field Cmax (entry `C[C@@H]1CCN(C(=O)CC#N)C[C@@H]1N(C)c1ncnc2[nH]ccc12` ) reads 5.62 µg/mL

----------
Assay Comment: Pharmacokinetics after 1-min intravenous infusion of tofacitinib to rats
Format: in vivo, Sprague-Dawley rats
Applied Conditions: male, Sprague-Dawley, rat, plasma; iv 10 mg/kg
Metric: CL renal
Give me the value, and tack the unit on after it.

CL renal in this record for `C[C@@H]1CCN(C(=O)CC#N)C[C@@H]1N(C)c1ncnc2[nH]ccc12` : 2.8 mL/min/kg

----------
Assay Comment: Pharmacokinetics after 1-min intravenous infusion of tofacitinib to rats
Type: in vivo, Sprague-Dawley rats
Applied Conditions: male, Sprague-Dawley, rat, plasma; iv 20 mg/kg; read-out: Terminal half-life
Description: The pretreatment and surgical procedures for oral and intravenous administration were similar to those described previously. For oral administration, the rats were fasted overnight with free access to water. […] The mobile phase consisted of a 69.5:30.5 (v/v) mixture of 10 mM ammonium acetate buffer (pH 5.0) and acetonitrile, respectively, with a flow rate of 1.0 mL/min. Column effluent was monitored by a UV detector at 287 nm. […]
Metric: half-life (min)
Write it as a number; the unit min goes unstated.

Lab note: `C[C@@H]1CCN(C(=O)CC#N)C[C@@H]1N(C)c1ncnc2[nH]ccc12` gave half-life of 48.1

----------
Assay Comment: Pharmacokinetics after oral administration of tofacitinib to rats
Type: in vivo, Sprague-Dawley rats
Applied Conditions: male, Sprague-Dawley, rat, plasma; oral 100 mg/kg
Metric: Cmax (ng/mL)
Enter your answer as a number in ng/mL; do not include the unit.

Quick note, Cmax for `C[C@@H]1CCN(C(=O)CC#N)C[C@@H]1N(C)c1ncnc2[nH]ccc12` landed at 13100

----------
Assay Comment: Pharmacokinetics after 1-min intravenous infusion of tofacitinib to rats
Format: in vivo, Sprague-Dawley rats
Applied Conditions: male, Sprague-Dawley, rat, plasma; iv 5 mg/kg; read-out: Vss
Metric: Vd (L/kg)
Give your result in L/kg as a bare value.

get_value(item= `C[C@@H]1CCN(C(=O)CC#N)C[C@@H]1N(C)c1ncnc2[nH]ccc12` , readout=Vd) returns 1.26

----------
Assay Comment: Pharmacokinetics after oral administration of tofacitinib to rats
Format: in vivo, Sprague-Dawley rats
Applied Conditions: male, Sprague-Dawley, rat, plasma; oral 100 mg/kg; dose-normalized oral AUC / AUC of 10 mg/kg iv; read-out: F (bioavailability)
Procedure: The pretreatment and surgical procedures for oral and intravenous administration were similar to those described previously. For oral administration, the rats were fasted overnight with free access to water. […] The mobile phase consisted of a 69.5:30.5 (v/v) mixture of 10 mM ammonium acetate buffer (pH 5.0) and acetonitrile, respectively, with a flow rate of 1.0 mL/min. Column effluent was monitored by a UV detector at 287 nm. […]
Metric: bioavailability (%)
Please reply with the bare figure in % and do not write the unit itself.

Query `C[C@@H]1CCN(C(=O)CC#N)C[C@@H]1N(C)c1ncnc2[nH]ccc12` yields bioavailability of 119
